Where these numbers come from: patent US9850283B2

target: Hu PD-L1/PD-1 (Homo sapiens); experiment: Cell binding assay Hu PD-L1/PD-1 (Tables 11-13, cell line not given); format: cell-based
Sequence (Q9NZQ7 19-290): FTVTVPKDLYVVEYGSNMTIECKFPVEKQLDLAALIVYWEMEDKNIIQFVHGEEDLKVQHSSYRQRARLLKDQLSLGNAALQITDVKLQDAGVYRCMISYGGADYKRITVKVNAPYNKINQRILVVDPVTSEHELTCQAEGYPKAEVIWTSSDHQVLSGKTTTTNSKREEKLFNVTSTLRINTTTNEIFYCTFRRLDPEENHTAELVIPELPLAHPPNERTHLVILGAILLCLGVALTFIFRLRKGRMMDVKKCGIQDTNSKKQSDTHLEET
Positions of bridges follow the written chain, without caps; N, C: chain ends. Non-standard residues stand in square brackets, D forms with d. Residues, ends and D or L forms follow the SMILES beside them. ξ: configuration not given here. NMeNle = CCCC[C@H](NC)C(=O)O; NMeA = CN[C@@H](C)C(=O)O; ξP = O=C(O)C1CCCN1; Sar = CNCC(=O)O

{"columns": ["compound", "relation qualifier", "IC50, µM"],
 "data": [
  ["CCCC[C@H]1C(=O)N(C)[C@@H](CCCC)C(=O)N[C@@H](CCCNC(=N)N)C(=O)N[C@H](C(=O)NCC(N)=O)CSCC(=O)N[C@@H](Cc2ccccc2)C(=O)N(C)[C@@H](C)C(=O)N[C@@H](CC(N)=O)C(=O)N2CCCC2C(=O)N[C@@H](C)C(=O)N[C@@H](CC(C)C)C(=O)N(C)CC(=O)N[C@@H](Cc2c[nH]c3ccccc23)C(=O)N[C@@H](CO)C(=O)N[C@@H](Cc2c[nH]c3ccccc23)C(=O)N1C (some centres unmarked) [Compound No. 10] ({CH2CO}-F[NMeA]N[ξP]AL[Sar]WSW[NMeNle][NMeNle]RCG-NH2; thioether N-14)", "=", 0.082],
  ["CCCC[C@H]1C(=O)N(C)[C@@H](CCCC)C(=O)N[C@@H](CCCNC(=N)N)C(=O)N[C@H](C(=O)NCC(N)=O)CSCC(=O)N[C@@H](Cc2ccccc2)C(=O)N(C)[C@@H](C)C(=O)N[C@@H](CC(N)=O)C(=O)N2CCC[C@H]2C(=O)N[C@@H](Cc2cnc[nH]2)C(=O)N[C@@H](CC(C)C)C(=O)N(C)CC(=O)N[C@@H](Cc2c[nH]c3ccccc23)C(=O)N[C@@H](CO)C(=O)N[C@@H](CC(C)C)C(=O)N1C [Compound No. 63] ({CH2CO}-F[NMeA]NPHL[Sar]WSL[NMeNle][NMeNle]RCG-NH2; thioether N-14)", ">", 10],
  ["CCCC[C@H]1C(=O)N[C@@H](CCCNC(=N)N)C(=O)N[C@H](C(=O)NCC(N)=O)CSCC(=O)N[C@@H](Cc2ccccc2)C(=O)N(C)[C@@H](C)C(=O)N[C@@H](CC(N)=O)C(=O)N2CCCC2C(=O)N[C@@H](Cc2cnc[nH]2)C(=O)N[C@@H](CC(C)C)C(=O)N(C)CC(=O)N[C@@H](Cc2c[nH]c3ccccc23)C(=O)N[C@@H](CO)C(=O)N[C@@H](Cc2c[nH]c3ccccc23)C(=O)N(C)[C@@H](C)C(=O)N1C (some centres unmarked) [Compound No. 19] ({CH2CO}-F[NMeA]N[ξP]HL[Sar]WSW[NMeA][NMeNle]RCG-NH2; thioether N-14)", "=", 0.134],
  ["CCCC[C@H]1C(=O)N(C)[C@@H](CCCC)C(=O)N[C@@H](CCCNC(=N)N)C(=O)N[C@H](C(=O)NCC(N)=O)CSCC(=O)N[C@@H](Cc2ccccc2)C(=O)N(C)[C@@H](C)C(=O)N[C@@H](CC(N)=O)C(=O)N2CCC[C@H]2C(=O)N[C@@H](Cc2c[nH]cn2)C(=O)N[C@@H](CC(C)C)C(=O)N[C@@H](CCN)C(=O)N[C@@H](Cc2c[nH]c3ccccc23)C(=O)N[C@@H](CO)C(=O)N[C@@H](Cc2c[nH]c3ccccc23)C(=O)N1C", "=", 0.108],
  ["CCCC[C@H]1C(=O)N(C)[C@@H](CCCC)C(=O)N[C@@H](C)C(=O)N[C@H](C(=O)NCC(N)=O)CSCC(=O)N[C@@H](Cc2ccccc2)C(=O)N(C)[C@@H](C)C(=O)N[C@@H](CC(N)=O)C(=O)N2CCCC2C(=O)N[C@@H](Cc2cnc[nH]2)C(=O)N[C@@H](CC(C)C)C(=O)N(C)CC(=O)N[C@@H](Cc2c[nH]c3ccccc23)C(=O)N[C@@H](CO)C(=O)N[C@@H](Cc2c[nH]c3ccccc23)C(=O)N1C (some centres unmarked)", "=", 0.028]
]}

* * *

pIC50 reference
Molecular target: LK35.2-hPD-L1 cells / PE-labeled PD-1-Ig (Homo sapiens, UniProt Q9NZQ7)
Construct: expressed in transfected cells; host or cells: LK35.2 mouse B cell line
Test: LK35.2-hPD-L1 cell binding high-content screening assay
Format: cell-based
Settings: cell binding assay, cell line not given; cluster symbol; read-out: CBA IC50 cluster
Experimental: LK35.2-hPD-L1 Cell Binding High-Content Screening Assay. Phycoerythrin (PE) was covalently linked to the Ig epitope tag of human PD-1-Ig and fluorescently-labeled PD-1-Ig was used for binding studies with a mouse B cell line (LK35.2) stably over-expressing human PD-L1 (LK35.2-hPD-L1). Briefly, 3×10^3 LK35.2-hPD-L1 cells were seeded into 384 well plates in 20 ul of RPMI supplemented with 10% fetal calf serum and cultured overnight. […]
pIC50: −log10 of the molar value. Positions of bridges follow the written chain, without caps; N, C: chain ends. Non-standard residues stand in square brackets, D forms with d. Residues, ends and D or L forms follow the SMILES beside them. Hyp = O=C(O)[C@@H]1C[C@@H](O)CN1; NMeNle = CCCC[C@H](NC)C(=O)O; NMeA = CN[C@@H](C)C(=O)O; Sar = CNCC(=O)O
assay endpoint: pIC50

{"columns": ["molecule", "assay endpoint", "result"],
 "data": [
  ["CCCC[C@H]1C(=O)N(C)[C@@H](CCCC)C(=O)N[C@@H](CO)C(=O)N[C@H](C(=O)NCC(N)=O)CSCC(=O)N[C@@H](Cc2ccc(O)cc2)C(=O)N(C)[C@@H](C)C(=O)N[C@@H](CO)C(=O)N2CCC[C@H]2C(=O)N[C@@H](CO)C(=O)N[C@@H](CO)C(=O)N2C[C@H](O)C[C@H]2C(=O)N[C@@H](Cc2c[nH]c3ccccc23)C(=O)N[C@@H](CO)C(=O)N[C@@H](Cc2c[nH]c3ccccc23)C(=O)N1C [Example 5135] ({CH2CO}-Y[NMeA]SPSS[Hyp]WSW[NMeNle][NMeNle]SCG-NH2; thioether N-14)", "pIC50", "7.14 to 8.32"],
  ["CCCC[C@H]1C(=O)N(C)[C@@H](CCCC)C(=O)N[C@@H](CCCNC(=N)N)C(=O)N[C@H](C(=O)NCC(N)=O)CSCC(=O)N[C@@H](Cc2ccccc2)C(=O)N(C)[C@@H](C)C(=O)N[C@@H](CC(N)=O)C(=O)N2CCC[C@H]2C(=O)N[C@@H](Cc2cnc[nH]2)C(=O)N[C@@H](CCCCN)C(=O)N(C)CC(=O)N[C@@H](Cc2c[nH]c3ccccc23)C(=O)N[C@@H](CO)C(=O)N[C@@H](Cc2c[nH]c3ccccc23)C(=O)N1C [Example 6004] ({CH2CO}-F[NMeA]NPHK[Sar]WSW[NMeNle][NMeNle]RCG-NH2; thioether N-14)", "pIC50", "7.14 to 8.32"],
  ["CCCC[C@H]1C(=O)N(C)[C@@H](CCCC)C(=O)N[C@@H](CCCNC(=N)N)C(=O)N[C@H](C(=O)NCC(N)=O)CSCC(=O)N[C@@H](Cc2ccccc2)C(=O)N(C)[C@@H](C)C(=O)N[C@@H](CC(N)=O)C(=O)N2CCC[C@H]2C(=O)N[C@@H](Cc2cnc[nH]2)C(=O)N[C@@H](CO)C(=O)N(C)CC(=O)N[C@@H](Cc2c[nH]c3ccccc23)C(=O)N[C@@H](CO)C(=O)N[C@@H](Cc2c[nH]c3ccccc23)C(=O)N1C [Example 6010] ({CH2CO}-F[NMeA]NPHS[Sar]WSW[NMeNle][NMeNle]RCG-NH2; thioether N-14)", "pIC50", "< 7.13"],
  ["CCCC[C@H]1C(=O)N[C@@H](C)C(=O)NC(C(=O)NCC(N)=O)CSCC(=O)N[C@@H](Cc2ccc(O)cc2)C(=O)N(C)[C@@H](C)C(=O)N[C@@H](CC(N)=O)C(=O)N2CCC[C@H]2C(=O)N[C@@H](CN)C(=O)N[C@@H](CC(C)C)C(=O)N2C[C@H](O)C[C@H]2C(=O)N[C@@H](Cc2c[nH]c3ccccc23)C(=O)N[C@@H](CO)C(=O)N[C@@H](Cc2c[nH]c3ccccc23)C(=O)N(C)[C@@H](CCSC)C(=O)N1C (stereo partly shown)", "pIC50", "7.14 to 8.32"]
]}

* * *

target: Human PD-L1/PD-1 (Homo sapiens); construct: made in house; host or cells: HEK293T; assay: HTRF PD-1-Ig/PD-L1-His binding assay (human PD-L1); details: cluster symbol; read-out: HTRF IC50 cluster
Sequence (Q9NZQ7 with tags, fused parts or gaps): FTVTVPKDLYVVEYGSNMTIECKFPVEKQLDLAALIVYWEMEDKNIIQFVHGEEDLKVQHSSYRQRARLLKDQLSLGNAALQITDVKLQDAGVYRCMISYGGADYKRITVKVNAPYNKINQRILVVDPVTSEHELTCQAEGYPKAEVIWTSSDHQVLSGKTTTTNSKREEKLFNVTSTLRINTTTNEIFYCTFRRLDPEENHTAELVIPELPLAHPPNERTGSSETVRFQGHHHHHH
pIC50: −log10 of the molar value. Positions of bridges follow the written chain, without caps; N, C: chain ends. Non-standard residues stand in square brackets, D forms with d. Residues, ends and D or L forms follow the SMILES beside them. Hyp = O=C(O)[C@@H]1C[C@@H](O)CN1; NMeNle = CCCC[C@H](NC)C(=O)O; NMeA = CN[C@@H](C)C(=O)O; Dab = NCC[C@H](N)C(=O)O

{"columns": ["compound", "pIC50"],
 "data": [
  ["CCCC[C@H]1C(=O)N(C)[C@@H](CCCC)C(=O)N[C@@H](CN)C(=O)N[C@H](C(=O)NCC(N)=O)CSCC(=O)N[C@@H](Cc2ccc(O)cc2)C(=O)N(C)[C@@H](C)C(=O)N[C@@H](CC(N)=O)C(=O)N2CCC[C@H]2C(=O)N[C@@H](Cc2cnc[nH]2)C(=O)N[C@@H](CC(C)C)C(=O)N2C[C@H](O)C[C@H]2C(=O)N[C@@H](Cc2c[nH]c3ccccc23)C(=O)N[C@@H](CO)C(=O)N[C@@H](Cc2c[nH]c3ccccc23)C(=O)N1C", "7.52 to 8.17"],
  ["CCCC[C@H]1C(=O)N(C)[C@@H](CCCC)C(=O)N[C@@H](CC(C)C)C(=O)N[C@H](C(=O)NCC(N)=O)CSCC(=O)N[C@@H](Cc2ccc(O)cc2)C(=O)N(C)[C@@H](C)C(=O)N[C@@H](CC(N)=O)C(=O)N2CCC[C@H]2C(=O)N[C@@H](CO)C(=O)N[C@@H](CC(C)C)C(=O)N2C[C@H](O)C[C@H]2C(=O)N[C@@H](Cc2c[nH]c3ccccc23)C(=O)N[C@@H](CCN)C(=O)N[C@@H](Cc2c[nH]c3ccccc23)C(=O)N1C [Example 5073] ({CH2CO}-Y[NMeA]NPSL[Hyp]W[Dab]W[NMeNle][NMeNle]LCG-NH2; thioether N-14)", "8.17 to 9.41"]
]}
